Test system: MDA-MB-435
Experiment Description: NCI tumour cell line growth inhibition, 48 h
Active and inactive are the calls of the source. No stated cut-off is given here; in the data, active = GI50 up to about 1.1 µM and inactive = higher.
Thanks in advance; please answer with one of these: active, inactive

Name the outcome recorded for CN(C)Cc1cc(/N=N/c2c(Cl)cccc2Cl)ccc1O in the assay.
inactive

Name the outcome recorded for CCCC/C=C1\CCC(CN2CCOCC2)C1=O (stereo not given) in the assay.
inactive

Name the outcome recorded for C=CCC1(C(=O)OC)CCC/C(=N\O)C1 (stereo not given) in the assay.
inactive

Name the outcome recorded for N#Cc1nc(CCCN2C(=O)c3ccccc3C2=O)oc1N in the assay.
inactive

Name the outcome recorded for Cc1cc(-c2cscn2)c(O)c([N+](=O)[O-])c1 in the assay.
inactive

Name the outcome recorded for O=Cc1ccc2ccocc1-2 in the assay.
inactive

Name the outcome recorded for O=C1NC(N2CCCCC2)=N/C1=C\c1ccccc1 in the assay.
inactive

Name the outcome recorded for CC(=O)OCC(=O)O[C@@H]1[C@H]2[C@@H](OC(=O)c3ccccc3)[C@@H](C)C[C@]2(O)[C@H](OC(C)=O)[C@@]2(C)C(OC(C)=O)[C@]1(OC(C)=O)C[C@H]1C(=O)C(C)(C)C[C@@H]12 (stereo not given in full) in the assay.
inactive

Name the outcome recorded for O=C1c2ccccc2C(=O)N1CCSCC(CO)SCCN1C(=O)c2ccccc2C1=O (stereo not given) in the assay.
inactive

Name the outcome recorded for O=C(O)CNn1c(SCC(=O)O)nnc(/C=C/c2c(O)ccc3ccccc23)c1=O in the assay.
inactive

Name the outcome recorded for CC(C)=CCNc1ncnc2c1ncn2CCC#N in the assay.
inactive

Name the outcome recorded for O=C1NCC2(CCNCC2)N1c1ccccc1 in the assay.
inactive

Name the outcome recorded for O=C1C(Cl)=C(N2C(=O)CCCC2=O)C(=O)c2ccccc21 in the assay.
inactive

Name the outcome recorded for COC(=O)C(COC(C)=O)NC(=O)/C=C/c1ccc(O)c(OC(C)=O)c1 (stereo not given) in the assay.
inactive

Name the outcome recorded for Cc1cc(S(=O)(=O)NC2=NNC(C)CN2)c(S)cc1Cl (stereo not given) in the assay.
inactive

Name the outcome recorded for COC(=O)c1c2c(cc3c1CCC3)CCC2 in the assay.
inactive

Name the outcome recorded for Clc1ccc(OCC2NC3CCC2CC3)cn1 (stereo not given) in the assay.
inactive

Name the outcome recorded for CC(C(O)c1ccccc1)C(O)(C(F)(F)F)C(F)(F)F (stereo not given) in the assay.
inactive

Name the outcome recorded for C/C(=N\NS(=O)(=O)c1ccc(C)cc1)P(=O)(O)O in the assay.
inactive

Name the outcome recorded for O=C(NNc1ccc([N+](=O)[O-])cc1[N+](=O)[O-])/C(O)=C\C(=O)c1ccccc1 in the assay.
inactive

Name the outcome recorded for O=C(CCc1cccc(O)c1)NCCc1cccc(OCc2ccccc2)c1 in the assay.
inactive

Name the outcome recorded for C/C=C1\CC(C(=O)OCC)CCCCCCC1=O (stereo not given) in the assay.
inactive

Name the outcome recorded for COc1ccc(C(C)NNC(=O)c2cc[n+]([BH2-]C#N)cc2)c(OC)c1 (stereo not given) in the assay.
inactive

Name the outcome recorded for COc1ccc(NC(=O)CC(=O)N2N=C(C)C(/N=N/c3ccc(C(=O)O)cc3)C2=O)cc1 (stereo not given) in the assay.
inactive

Name the outcome recorded for O=CNNC(=O)CSc1nc2ccc(I)cc2c(=O)n1Cc1ccccc1 in the assay.
inactive

Name the outcome recorded for Cc1cc2nc3ccc(N(C)C)cc3[s+]c2cc1N [TOLONIUM CHLORIDE] in the assay.
active

Name the outcome recorded for Cc1cccc(C)c1NC(=O)C(=O)CC(=O)/C=C/c1ccccc1 in the assay.
inactive

Name the outcome recorded for CC1(c2cccc(Cl)c2)CC(c2cccc(Cl)c2)=C(C#N)C(=C(C#N)C#N)N1 (stereo not given) in the assay.
inactive

Name the outcome recorded for Cc1csc(-n2c(C)nc3cc(Cl)ccc3c2=O)n1 in the assay.
inactive

Name the outcome recorded for c1ccc(CCNc2ccccn2)nc1 in the assay.
inactive

Name the outcome recorded for O=C1CC(=O)NC(NN2C(=O)/C(=C/C(=O)c3ccco3)N=C2c2ccccc2)=N1 in the assay.
inactive

Name the outcome recorded for Cn1c(=O)c2c(nc3sc4c(n32)C(=O)c2c(O)ccc(O)c2C4=O)n(C)c1=O in the assay.
inactive

Name the outcome recorded for Cc1ccc(-n2c(N)c(C#N)c3[nH]nc(N)c3c2=O)cc1 in the assay.
inactive

Name the outcome recorded for Cc1ccc(C(=O)/C(C#N)=C/Nc2c(C)n(C)n(-c3ccccc3)c2=O)cc1 in the assay.
inactive

Name the outcome recorded for C/C=C1\C(=O)OC2CCN3CCC(COC(=O)C(C)(O)C(C)C1O)C23 (stereo not given) in the assay.
inactive

Name the outcome recorded for OCC(O)C(O)C(O)C(/C=N\Nc1ncnc2ccc(Br)cc12)=N/Nc1ncnc2ccc(Br)cc12 (stereo not given) in the assay.
inactive

Name the outcome recorded for CN(C)CCNC1=Nc2ccccc2C(=S)N2CSCC12 (stereo not given) in the assay.
inactive

Name the outcome recorded for C/C(=N\N=C(/S)SCc1ccccc1)c1ccccn1 in the assay.
active

Name the outcome recorded for COc1ccc(-c2nc(SCC(=O)N/N=C/c3ccc(O)c(OC)c3)[nH]c2-c2ccc(OC)cc2)cc1 in the assay.
inactive

Name the outcome recorded for Clc1ccc(-c2nc(-c3ccc(Cl)cc3)[s+]s2)cc1 in the assay.
inactive
